- System: SNB-75 CNS
- METHOD DESCRIPTION: NCI tumour cell line growth inhibition, 48 h
Give TGI for every item shown.
Numbers only, in µM.

Here is how some compounds turned out for TGI.
| COMPOUND | TGI (µM) |
| --- | --- |
| NP1(Oc2ccc(F)cc2)=NP(N)(Oc2ccc(F)cc2)=NP(Oc2ccc(F)cc2)(Oc2ccc(F)cc2)=N1 (stereo not given) | 14.5 |
| CSc1ccc(-c2cn3ccsc3n2)cc1 | 74 |
| COc1cc(/C=N/NC(=O)c2cnn3c2NC(c2ccccc2)C3)ccc1OCc1ccccc1 (stereo not given) | 2.24 |

Tell me measured TGI for COc1ccc2c(Cl)cc(NC(=S)Nc3ccccc3)nc2c1 please. 52.1

Values compiled from PubChem BioAssay (NCI).
